tested on: 4T1; test: % inhibition of 4T1 cell number vs DMSO control; higher = stronger growth inhibition; conditions: 1 µM; 3 days; substrate: gelatin
PROPERTY LABEL: % inhibition of 4T1 cell number

Below, 7 compounds whose answers are already recorded.
Query: Item `O=c1c2ccccc2[nH]c(=S)n1CCN1CCC(=C(c2ccc(F)cc2)c2ccc(F)cc2)CC1` has what recorded % inhibition of 4T1 cell number?
Response: -29.1%

Query: Queued: OCC(O)CCO/N=C1\C(c2c(O)[nH]c3ccccc23)=Nc2ccccc21 (stereo not drawn)
Response: 0.993%

Query: And then COc1ccc2c(c1)c1c3c(c4c5ccccc5n(C)c4c1n2CC(O)CN(C)C)C(=O)NC3=O (stereo not drawn) , what is it?
Response: -19%

Query: Same question, COc1nccc(-c2c(-c3ccc(F)cc3)ncn2C2CCC(O)CC2)n1 (stereo not drawn) this time
Response: 34.2%

Query: And then CSc1nc(-c2ccnc(NC(C)c3ccccc3)c2)c(-c2ccc(F)cc2)[nH]1 (stereo not drawn) , what is it?
Response: -7.6%

Query: Again, but for `c1ccc2c(-c3ccncc3)c[nH]c2c1`
Response: -33.3%

Query: Quick one: `CCCCCCCCCCCCCCCCn1cc[n+](Cc2ccccc2)c1C`
Response: 78.5%

Next:
Query: Could you share which % inhibition of 4T1 cell number value was measured for `N#CC(C#N)=C(N)/C(C#N)=C/c1ccc(O)cc1` ?
Response: 52.7%
